Would you mind telling me the reported p-Smad1/5/8 (%) of each entry?
biological target: growth factor receptors; experiment: cell-based or functional assay
No end group written: not given here.
One number for each entry, in %.

Known results for binders:
>>> value("VPEKMSSLSILFFDENKNAALKVYPNMTVE (not fully specified) [GFR-binding compound of SEQ ID NO: 92]")
52
>>> value("VPQALSPISILFIVGRKPKVYKQYEMIVERS (not fully specified) [GFR-binding compound of SEQ ID NO: 89]")
41
>>> value("VPARLSPISILYIDAANNVVYKQYEDM (not fully specified) [GFR-binding compound of SEQ ID NO: 74]")
51

Consider the following items and state reported p-Smad1/5/8 (%) for each.
1. SRVHHNAISTLYFDESSNVILKKYRGMSVVE (not fully specified) [GFR-binding compound of SEQ ID NO: 91]
2. APTKLEPLPMVYYEERRNVIEQLSNNMVVR (not fully specified) [GFR-binding compound of SEQ ID NO: 86]
3. VPTELSPISILFIRIKPHQGHLGEMSAAVVE (not fully specified) [GFR-binding compound of SEQ ID NO: 70]
4. APTKLEPLTIVYYDDSSNVIEQLSNNMVVR (not fully specified) [GFR-binding compound of SEQ ID NO: 88]

Data returned:
[56, 34, 30, 32]
